Kindly state total protein half-life in vivo for each of the entries shown.
- ASSAY OVERVIEW: total protein half-life in vivo (active degradation + dilution); higher = more stable protein
- CONDITION INFO: wild type E. coli NCM3722; growth: C-lim chemostat; doubling time 12 h
Numbers only, in h.

Before answering, review these 4 worked examples.
- SEQUENCE CODE: "MKILVDENMPYARDLFSRLGEVTAVPGRPIPVAQLADADALMVRSVTKVNESLLAGKPIKFVGTATAGTDHVDEAWLKQAGIGFSAAPGCNAIAVVEYVFSSLLMLAERDGFSLYDRTVGIVGVGNVGRRLQARLEALGIKTLLCDPPRADRGDEGDFRSLDELVQRADILTFHTPLFKDGPYKTLHLADEKLIRSLKPGAILINACRGAVVDNTALLTCLNEGQKLSVVLDVWEGEPELNVELLKKVDIGTSHIAGYTLEGKARGTTQVFEAYSKFIGHEQHVALDTLLPAPEFGRITLHGPLDQPTLKRLVHLVYDVRRDDAPLRKVAGIPGEFDKLRKNYLERREWSSLYVICDDASAASLLCKLGFNAVHHPAR"
  VAL: 12.6
- SEQUENCE CODE: "MHGNSEMQKINQTSAMPEKTDVHWSGRFSVAPMLDWTDRHCRYFLRLLSRNTLLYTEMVTTGAIIHGKGDYLAYSEEEHPVALQLGGSDPAALAQCAKLAEARGYDEINLNVGCPSDRVQNGMFGACLMGNAQLVADCVKAMRDVVSIPVTVKTRIGIDDQDSYEFLCDFINTVSGKGECEMFIIHARKAWLSGLSPKENREIPPLDYPRVYQLKRDFPHLTMSINGGIKSLEEAKAHLQHMDGVMVGREAYQNPGILAAVDREIFGSSDTDADPVAVVRAMYPYIERELSQGTYLGHITRHMLGLFQGIPGARQWRRYLSENAHKAGADINVLEHALKLVADKR"
  VAL: 9.77
- SEQUENCE CODE: "MQNTTHDNVILELTVRNHPGVMTHVCGLFARRAFNVEGILCLPIQDSDKSHIWLLVNDDQRLEQMISQIDKLEDVVKVQRNQSDPTMFNKIAVFFQ [P0ADF8]"
  VAL: 4.56
- SEQUENCE CODE: "MVEDILAPGLRVVFCGINPGLSSAGTGFPFAHPANRFWKVIYQAGFTDRQLKPQEAQHLLDYRCGVTKLVDRPTVQANEVSKQELHAGGRKLIEKIEDYQPQALAILGKQAYEQGFSQRGAQWGKQTLTIGSTQIWVLPNPSGLSRVSLEKLVEAYRELDQALVVRGR [P0A9H1]"
  VAL: 12.1

Hi, could you look up total protein half-life in vivo for each item in my list?
1. MNNRVHQGHLARKRFGQNFLNDQFVIDSIVSAINPQKGQAMVEIGPGLAALTEPVGERLDQLTVIELDRDLAARLQTHPFLGPKLTIYQQDAMTFNFGELAEKMGQPLRVFGNLPYNISTPLMFHLFSYTDAIADMHFMLQKEVVNRLVAGPNSKAYGRLSVMAQYYCNVIPVLEVPPSAFTPPPKVDSAVVRLVPHATMPHPVKDVRVLSRITTEAFNQRRKTIRNSLGNLFSVEVLTGMGIDPAMRAENISVAQYCQMANYLAENAPLQES
2. MKRAPLITGLLLISTSCAYASSGGCGADSTSGATNYSSVVDDVTVNQTDNVTGREFTSATLSSTNWQYACSCSAGKAVKLVYMVSPVLTTTGHQTGYYKLNDSLDIKTTLQANDIPGLTTDQVVSVNTRFTQIKNNTVYSAATQTGVCQGDTSRYGPVNIGANTTFTLYVTKPFLGSMTIPKTDIAVIKGAWVDGMGSPSTGDFHDLVKLSIQGNLTAPQSCKINQGDVIKVNFGFINGQKFTTRNAMPDGFTPVDFDITYDCGDTSKIKNSLQMRIDGTTGVVDQYNLVARRRSSDNVPDVGIRIENLGGGVANIPFQNGILPVDPSGHGTVNMRAWPVNLVGGELETGKFQGTATITVIVR

1: 12.5; 2: 11.5

# credit: the supplement of paper PMC11246515
